Taken from patent EP4623908A1.

assay: Drug concentration in rat plasma and lungs after tracheal nebulization and oral gavage (Example 2); assay type: in vivo, rats; settings: plasma, oral gavage (po. 60mg/kg), read-out: Plasma AUC0-t
assayReadout: AUC(0-t) (ng·h/mL)
Numbers only, in ng·h/mL.

## Task Fill blank: measured AUC(0-t) of the molecule O=C(O[C@@H]1Cc2c(O)cc(O)cc2O[C@@H]1c1cc(O)c(O)c(O)c1)c1cc(O)c(O)c(O)c1 [EGCG, (-)-Epigallocatechin gallate] is ____.
## Result 136

* * *

assay: Drug concentration in rat plasma and lungs after tracheal nebulization and oral gavage (Example 2); assay type: in vivo, rats; conditions: plasma, inhaled, tracheal nebulization (inh.0.8mg/kg), read-out: Plasma AUC0-t
assayReadout: AUC(0-t) (ng·h/mL)
Give bare numbers, in ng·h/mL.

## Task Fill blank: measured AUC(0-t) of the molecule O=C(O[C@@H]1Cc2c(O)cc(O)cc2O[C@@H]1c1cc(O)c(O)c(O)c1)c1cc(O)c(O)c(O)c1 [EGCG, (-)-Epigallocatechin gallate] is ____.
## Result 292
